# experimental_system: PSMA-expressing C4-2 cells (Homo sapiens, UniProt Q04609)
# Construct: PSMA-expressing C4-2 cells (ATCC, Cat. No. CRL-3314) were cultured in RPMI-1640; host or cells: C4-2 cells
# Sequence (Q04609 whole entry): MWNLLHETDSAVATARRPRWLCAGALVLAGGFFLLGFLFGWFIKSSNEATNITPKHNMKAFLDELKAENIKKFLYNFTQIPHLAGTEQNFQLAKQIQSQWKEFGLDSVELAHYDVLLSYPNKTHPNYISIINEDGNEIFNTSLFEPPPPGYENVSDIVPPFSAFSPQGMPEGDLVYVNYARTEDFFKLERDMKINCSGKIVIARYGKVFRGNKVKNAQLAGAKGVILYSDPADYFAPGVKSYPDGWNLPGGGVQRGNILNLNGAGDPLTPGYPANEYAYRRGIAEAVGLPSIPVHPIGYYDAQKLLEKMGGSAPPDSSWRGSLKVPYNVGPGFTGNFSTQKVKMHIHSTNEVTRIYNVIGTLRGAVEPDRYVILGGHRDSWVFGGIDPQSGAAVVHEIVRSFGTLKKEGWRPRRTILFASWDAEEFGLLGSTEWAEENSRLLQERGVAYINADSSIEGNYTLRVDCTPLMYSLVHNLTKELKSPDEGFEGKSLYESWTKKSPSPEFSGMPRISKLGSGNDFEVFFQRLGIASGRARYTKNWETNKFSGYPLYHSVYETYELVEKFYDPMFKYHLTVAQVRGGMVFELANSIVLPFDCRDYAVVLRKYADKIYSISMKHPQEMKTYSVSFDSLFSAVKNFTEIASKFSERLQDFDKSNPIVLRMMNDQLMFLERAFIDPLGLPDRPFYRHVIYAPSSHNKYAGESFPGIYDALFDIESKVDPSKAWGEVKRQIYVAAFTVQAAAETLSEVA
# protocol_description: FACS binding assay (competition with 50 nM PSM-0183)
# reported_conditions: pIC50 category of FACS binding, C4-2 cells; read-out: pIC50 [C4-2] CAT (converted)
Bridge positions count the residues as written; N and C are the ends. Square brackets hold non-standard residues; d marks the D form. Peptide text beside a SMILES is read from it. * marks the point of attachment. TtdsdLys(DOTA)NH2 = NC(=O)[C@@H](CCCCNC(=O)CN1CCN(CC(=O)O)CCN(CC(=O)O)CCN(CC(=O)O)CC1)NC(=O)CCC(=O)NCCCOCCOCCOCCCN*; Acetyl(1-DOTA-4-piperidyl) = O=C(O)CN1CCN(CC(=O)O)CCN(CC(=O)N2CCC(CC(=O)*)CC2)CCN(CC(=O)O)CC1; Tle = CC(C)(C)[C@H](N)C(=O)O; Nle = CCCC[C@H](N)C(=O)O; Aib = CC(C)(N)C(=O)O
measured_quantity: IC50

{"compound": "CC(=O)N[C@H](C(=O)NC(C)(C)C(=O)N[C@@H](Cc1ccccc1)C(=O)N[C@H]1CSSC[C@@H](C(=O)N[C@H](C(=O)N[C@H](C(N)=O)[C@@H](C)O)C(C)(C)C)NC(=O)[C@H](CC(N)=O)NC(=O)[C@H](CCCCNC(=O)CC2CCN(C(=O)CN3CCN(CC(=O)O)CCN(CC(=O)O)CCN(CC(=O)O)CC3)CC2)NC(=O)[C@H](CCCNC(=N)N)NC(=O)[C@H](CCCCN)NC1=O)[C@@H](C)O [PSM-0415] (Ac-T[Aib]FCKRK(Acetyl(1-DOTA-4-piperidyl))NC[Tle]T-NH2; disulfide 4-9)", "IC50": "< 0.2 µM"}

// CCCC[C@H](NC(=O)[C@@H]1CSSC[C@H](NC(=O)[C@H](Cc2ccccc2)NC(=O)[C@H](C)NC(=O)[C@@H](NC(C)=O)[C@@H](C)O)C(=O)N[C@@H](CCCCN)C(=O)N[C@@H](CCCNC(=N)N)C(=O)N[C@@H](C)C(=O)N[C@@H](CC(N)=O)C(=O)N1)C(=O)N[C@H](C(=O)N[C@@H](CC(=O)O)C(=O)NCCCOCCOCCOCCCNC(=O)CCC(=O)N[C@H](CCCCNC(=O)CN1CCN(CC(=O)O)CCN(CC(=O)O)CCN(CC(=O)O)CC1)C(N)=O)[C@@H](C)O [PSM-0533] (Ac-TAFCKRANC[Nle]TD-{TtdsdLys(DOTA)NH2}; disulfide 4-9) : IC50 value = 0.2 to 1.26 µM
